# TARGET_OR_SYSTEM: Intestinal-type alkaline phosphatase (Bos taurus, UniProt P19111)
# Sequence (P19111 whole entry): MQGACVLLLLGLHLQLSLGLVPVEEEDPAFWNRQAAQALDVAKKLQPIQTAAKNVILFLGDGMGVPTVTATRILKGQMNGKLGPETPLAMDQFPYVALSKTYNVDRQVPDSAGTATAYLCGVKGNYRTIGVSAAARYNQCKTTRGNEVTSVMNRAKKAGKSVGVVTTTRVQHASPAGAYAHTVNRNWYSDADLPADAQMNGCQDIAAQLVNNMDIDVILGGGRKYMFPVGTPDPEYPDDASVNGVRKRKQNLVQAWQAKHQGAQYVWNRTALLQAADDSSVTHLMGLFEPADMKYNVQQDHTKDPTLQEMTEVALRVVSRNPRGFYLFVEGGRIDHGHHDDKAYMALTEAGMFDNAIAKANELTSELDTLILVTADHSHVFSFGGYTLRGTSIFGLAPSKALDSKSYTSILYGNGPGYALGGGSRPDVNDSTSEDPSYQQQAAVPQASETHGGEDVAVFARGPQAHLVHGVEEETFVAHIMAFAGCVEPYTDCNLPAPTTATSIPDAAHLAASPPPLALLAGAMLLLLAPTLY
Please assign class 0 whenever Ki is at or above 4 µM, and class 1 whenever it is below.

COC1Oc2c(Cl)cc(Cl)cc2C(=O)/C1=C\Nc1ccc(S(N)(=O)=O)cc1 (racemic)    class 1
COC1Oc2ccc(Cl)cc2C(=O)/C1=C\Nc1ccccc1S(N)(=O)=O (racemic)    class 1
COC1Oc2ccc(C)cc2C(=O)/C1=C\Nc1ccccc1S(N)(=O)=O (racemic)    class 1

Prompt line: Strictly below 4 µM: is that where Ki of COC1Oc2c(Cl)cc(Cl)cc2C(=O)/C1=C\Nc1cccc(S(N)(=O)=O)c1 (racemic) sits?
Response line: class 1

Prompt line: Lab log: compare recorded Ki with 4 µM; is it strictly lower for COC1Oc2ccc(F)cc2C(=O)/C1=C\Nc1cccc(S(N)(=O)=O)c1 (racemic) ?
Response line: class 0

Prompt line: Quick check: Ki of COC1Oc2ccc(F)cc2C(=O)/C1=C\Nc1ccccc1S(N)(=O)=O (racemic) under 4 µM?
Response line: class 0

Prompt line: Check if Ki falls below 4 µM for CCCCOC1Oc2ccccc2C(=O)/C1=C\Nc1ccc(S(N)(=O)=O)cc1 (racemic) .
Response line: class 0

Data credit: ChEMBL document CHEMBL3797053
